Reference source: ChEMBL document CHEMBL1201862

In this section, each of the compounds is paired with its reported GI50.
# Test system: M14
# PROTOCOL_DESCRIPTION: NCI tumour cell line growth inhibition, 48 h
Activity calls are given as the source filed them. Cut-off read from the data, not from the text of the source: active = GI50 up to about 1.1 µM and inactive = higher.

COC(=O)C(=O)C(C(=O)C(=O)Nc1ccccc1C(=O)OC)c1nc2ccc(C(=O)c3ccccc3)cc2nc1O (stereo unspecified)	> 100 µM (inactive)
O=C(O)C[C@@H](Cl)[C@H](NC(=O)OCc1ccccc1)C(=O)O	> 100 µM (inactive)
Oc1cc(-c2ccccn2)nc2ccc(Cl)cc12	36.9 µM (inactive)
OC(Cc1cc(CC(O)(C(F)(F)F)C(F)(F)F)nc(CC(O)(C(F)(F)F)C(F)(F)F)c1)(C(F)(F)F)C(F)(F)F	2.43 µM (inactive)
O=C(c1ccc(O)c([N+](=O)[O-])c1)c1ccc(O)c([N+](=O)[O-])c1	> 100 µM (inactive)

Please report GI50 for the following compound: CCN1CCCCC(=N\O)/C(=N/O)CCCC1
> 100 µM (inactive)
